# Target: Neu5Ac(a2-8)Neu5Ac(a2-8)Neu5Ac(a2-3)Gal(b1-4)Glc
# Assay Info: glycan array binding signal (z-score within array); higher = stronger binding
# Experimental Setup: glycan notation: IUPAC condensed, linker removed
The sample as a whole holds a higher share of the strongest signals than the screen did.
Reported glycan array binding signal (z-score) values for a set of binders
Hey, just send me the number, nothing else.

Worked examples follow.
>>> data_value("Morniga (Morus nigra) (protein) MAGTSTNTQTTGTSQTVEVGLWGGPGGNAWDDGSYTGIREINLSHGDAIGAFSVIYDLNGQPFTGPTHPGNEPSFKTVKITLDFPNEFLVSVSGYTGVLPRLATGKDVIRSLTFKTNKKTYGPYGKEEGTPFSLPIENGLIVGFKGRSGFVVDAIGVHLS")
-0.334
>>> data_value("CPA (Cicer arietinum) (protein) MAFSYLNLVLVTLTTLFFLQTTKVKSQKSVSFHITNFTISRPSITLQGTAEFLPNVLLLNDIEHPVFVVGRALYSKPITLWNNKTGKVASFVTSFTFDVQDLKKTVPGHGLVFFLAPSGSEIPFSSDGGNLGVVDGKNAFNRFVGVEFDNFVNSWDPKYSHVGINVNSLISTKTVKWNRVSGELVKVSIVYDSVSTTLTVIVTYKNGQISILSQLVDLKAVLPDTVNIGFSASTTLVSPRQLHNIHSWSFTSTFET")
-0.579
>>> data_value("Mindin (Homo sapiens), Q9BUD6 (protein) MENPSPAAALGKALCALLLATLGAAGQPLGGESICSARALAKYSITFTGKWSQTAFPKQYPLFRPPAQWSSLLGAAHSSDYSMWRKNQYVSNGLRDFAERGEAWALMKEIEAAGEALQSVHEVFSAPAVPSGTGQTSAELEVQRRHSLVSFVVRIVPSPDWFVGVDSLDLCDGDRWREQAALDLYPYDAGTDSGFTFSSPNFATIPQDTVTEITSSSPSHPANSFYYPRLKALPPIARVTLVRLRQSPRAFIPPAPVLPSRDNEIVDSASVPETPLDCEVSLWSSWGLCGGHCGRLGTKSRTRYVRVQPANNGSPCPELEEEAECVPDNCV")
-0.295
>>> data_value("WGA (Triticum vulgare) (protein) QRCGEQGSNMECPNNLCCSQYGYCGMGGDYCGKGCQNGACWTSKRCGSQAGGATCPNNHCCSQYGHCGFGAEYCGAGCQGGPCRADIKCGSQSGGKLCPNNLCCSQWGFCGLGSEFCGGGCQSGACSTDKPCGKDAGGRVCTNNYCCSKWGSCGIGPGYCGAGCQSGGCDAVFAGAITANSTLLAE")
-0.35

# binder ZG16p (Homo sapiens), O60844 (protein) ARSSSYSGEYGGGGGKRFSHSGNQLDGPITALRVRVNTYYIVGLQVRYGKVWSDYVGGRNGDLEEIFLHPGESVIQVSGKYKWYLKKLLFVTDKGRYLSFGKDSGTSFNAVPLHPNTVLRFISGRSGSLIDAIGLHWDVYPSSCSRC ; its glycan array binding signal (z-score) = -0.328
